# test system: UniProtKB P28335
# Sequence (P28335 33-458): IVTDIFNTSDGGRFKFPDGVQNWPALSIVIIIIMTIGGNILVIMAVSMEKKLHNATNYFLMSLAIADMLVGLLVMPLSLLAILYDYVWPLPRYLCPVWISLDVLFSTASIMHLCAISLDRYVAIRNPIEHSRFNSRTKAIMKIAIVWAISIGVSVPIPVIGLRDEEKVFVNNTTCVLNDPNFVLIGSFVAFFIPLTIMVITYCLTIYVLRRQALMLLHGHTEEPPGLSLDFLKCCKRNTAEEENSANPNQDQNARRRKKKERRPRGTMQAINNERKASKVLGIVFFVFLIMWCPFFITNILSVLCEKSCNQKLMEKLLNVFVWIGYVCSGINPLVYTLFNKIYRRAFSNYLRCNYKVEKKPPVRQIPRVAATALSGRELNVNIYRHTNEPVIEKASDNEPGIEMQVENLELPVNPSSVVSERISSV
endpoint name: pKi
Please note pKi is a logarithmic value: minus log10 of concentration in mol/L. Answer with that number alone.

{"columns": ["compound", "test system", "result"],
 "data": [
  ["CNCC(C)CN1c2ccccc2Sc2ccc(OC)cc21 (stereo not drawn)", "UniProtKB P28335", 8.05]
]}

With UniProtKB P28335 as the test system, COc1ccc2c(c1)N(C[C@H](C)CN(C)C)c1ccccc1S2 showed pKi of 8.10

With UniProtKB P28335 as the test system, COc1ccc2c(c1)N(C[C@H](C)CN(C)C)c1ccccc1[S+]2[O-] (stereo partly drawn) [Sulfoxide, levomepromazine sulfoxide] showed pKi of 5.70

* * *

// endpoint pKi / system Dopamine D3 (Homo sapiens)
Please note pKi is a logarithmic value: minus log10 of concentration in mol/L. Answer with that number alone.

{"columns": ["molecule", "pKi"],
 "data": [
  ["CNCC(C)CN1c2ccccc2Sc2ccc(OC)cc21 (stereo not drawn)", 8.30]
]}

Lookup result for COc1ccc2c(c1)N(C[C@H](C)CN(C)C)c1ccccc1S2 ; measured pKi: 8.40

* * *

// endpoint Ki / system Serotonin 5-HT6 (Homo sapiens, UniProt P50406)
# unit: µM | format: bare number

{"columns": ["molecule", "endpoint name", "units symbol", "result"],
 "data": [
  ["COc1ccc2c(c1)N(C[C@H](C)CN(C)C)c1ccccc1S2", "Ki", "µM", 0.082]
]}

Consider the record given below.
With Serotonin 5-HT6 (Homo sapiens, UniProt P50406) as the test system, CNCC(C)CN1c2ccccc2Sc2ccc(OC)cc21 (stereo not drawn) showed Ki of 0.098
